src = ChEMBL document CHEMBL1201862

Tested on: SF-539
Test: NCI tumour cell line growth inhibition, 48 h
The source made the active and inactive calls. Rule as the data show it: active = GI50 up to about 1.1 µM and inactive = higher.
Reported GI50 values for the following molecules.

>  <molecule>
O=c1ccc2ccc(O)c3c4c(O)ccc5ccc(=O)c(c1c23)c54

>  <assay system>
SF-539

>  <GI50>
1.69 µM (inactive)

$$$$
>  <molecule>
CC(CC[C@@H](O)C(C)(C)O)C1[C@@H](O)CC2(C)C3CC(O)C4C(C)(C)[C@@H](OC5OC(CO)C(O)C(O)C5O)CC[C@@]45C[C@@]35CC[C@]12C (stereo not given in full)

>  <assay system>
SF-539

>  <GI50>
> 10 µM (inactive)

$$$$

Field GI50 (entry "O=C1C(O)=C(C(C2=C(O)C(=O)c3ccccc3C2=O)c2ccc(Cl)cc2)C(=O)c2ccccc21" ) reads 18 µM (inactive)

GET /value?item= "O=c1[nH]nc(Cc2ccc(Cl)cc2)n1CCO" &field=GI50 returns > 100 µM (inactive)

Sure, the documented GI50 for "O=C(CC(=O)c1ccncc1)c1ccccc1" is 63.5 µM (inactive)

* * *

# reported GI50; entries follow
System: KM12
Experiment: NCI tumour cell line growth inhibition, 48 h
Active and inactive are the calls of the source. No stated cut-off is given here; in the data, active = GI50 up to about 1.1 µM and inactive = higher.

Here is how some compounds turned out for GI50.
>  <compound>
CCc1cccc(C(C)CC)c1NC(=O)C(=O)C(CC(=O)Nc1ccc(Cl)c(Cl)c1)C(=O)OC (stereo not given)

>  <reading>
41.5 µM (inactive)

$$$$
>  <compound>
CC(=O)O[C@H]1CC[C@@]2(C)C(=CC[C@@H]3[C@@H]2CC[C@]2(C)c4nc(N)c(C#N)cc4C[C@@H]32)C1

>  <reading>
55.1 µM (inactive)

$$$$
>  <compound>
C[Si](C)(C)/C=C/CN1C(=O)CCC1=O

>  <reading>
> 100 µM (inactive)

$$$$

Lookup result for "CCOC(=O)c1cc2cc(N(C(C)=O)C(C)=O)ccc2s1" ; measured GI50: 40.5 µM (inactive)

Record summary for O=C1CC(NC(=O)C(F)(F)F)c2c(Br)sc(N3CCNCC3)c21 (stereo not given) : reported GI50 = > 100 µM (inactive)

Lab note: "COc1cccc(-n2c(N)c(-c3nc4cc(C(F)(F)F)ccc4s3)c3ccc([N+](=O)[O-])cc3c2=O)c1" gave GI50 of > 100 µM (inactive)

Record "O=[N+]([O-])/C(C(Cl)=C(Cl)Cl)=C1\NCCO1" . Reported GI50: > 100 µM (inactive)

In plain terms, "CCSc1nn(-c2c3ccccc3nc3ccccc23)c(=S)s1" has a documented GI50 of > 100 µM (inactive)

The recorded GI50 for "Cc1ccc(S(=O)(=O)c2[nH]cc(/C(=C\C3CCCCC3)[N+](=O)[O-])c2C2CCCCC2)cc1" is 1.79 µM (inactive)

The reported value for "O=c1oc2ccc3ccccc3c2cc1-c1cn2ccsc2n1" in terms of GI50 is 20.6 µM (inactive)

* * *

System: RPMI-8226
Test: NCI tumour cell line growth inhibition, 48 h
Calls of active or inactive are those of the source. Rule as the data show it: active = GI50 up to about 1.1 µM and inactive = higher.
Outcome (select one): active, inactive

>  <compound>
CC12OC1(C)C1C(=O)OCC1C2=O (configuration not stated)

>  <cat>
inactive

$$$$

## Input Write down the call the test reported for this compound. Item: COc1ccc(C(Cc2cc(OC)c(OC)c(OC)c2)C(=O)O)cc1 (configuration not stated)
## Output inactive

## Input Per the records of this test, what outcome belongs to COC(=O)C1(C)C=C(Nc2ccccc2)C(=O)N1c1ccccc1 (configuration not stated) ?
## Output inactive

## Input Please share the test call associated with "O=C(N1CCOCC1)C1(c2ccccc2)CCNCC1" .
## Output inactive

## Input Called result for "CC(=O)OCCn1c(Cc2ccc(C)cc2)nn(C(C)=O)c1=O"
## Output inactive
